Test system: MOLT-4 leukemia
Test: NCI tumour cell line growth inhibition, 48 h
Criterion: TGI meeting or surpassing 60 µM. Met: y. Not met: n.

Completed entries (count: 3):
COc1ccc(C(=O)c2cc(OC)c(OC)c(OC)c2)cc1/C=C/C(=O)c1ccc(F)cc1	n
CC1(C)OC(=O)N(c2ccccc2)C12C=Cc1cc([N+](=O)[O-])ccc1O2 (stereo unspecified)	y
CCCCC1Cc2ccccc2-c2nc3ccccc3n21 (stereo unspecified)	n

// inclusive: TGI at least 60 µM? input: COc1ccc(-c2cc(-c3cc(C)cc(Br)c3O)no2)cc1
y

Given the entry CC1=[N+]([O-])c2ccccc2C(=O)C1=O , answer whether its TGI meets or surpasses 60 µM.
y

Given the entry COC(=O)C12CC3CC(CC(C(=O)O)(C3)C1)C2 , answer whether its TGI meets or surpasses 60 µM.
y

---

System: HOP-62 NSCLC
Experiment: NCI tumour cell line growth inhibition, 48 h
measured-property: TGI (µM)
One number for each entry, in µM.

The examples below pair each entry with its known result.
CC12OC(C(=O)C13CC3)C1C(=O)c3ccc4c(ccc5ccccc54)c3C(=O)C12 (configuration not stated)	99.8
N#Cc1c(-c2ccccc2)[nH]c2ccc(Cl)cc2c1=O	74
COc1ccc(-c2cc(-c3cc(C)cc(Br)c3O)no2)cc1	41.9

Here are 4 compounds. What values of TGI were reported for them?
1. CCOC(=O)C1CCN(S(=O)(=O)/N=C2/NC(=O)NC2=C(Cl)Cl)CC1
2. COc1ccc(-c2nc3ccccn3c2/C=C/C(=O)c2cc(OC)c(OC)c(OC)c2)cc1OC
3. CCCCC(CC)COC(=O)C[N+](C)(C)CCOC(c1ccccc1)c1ccccc1 (configuration not stated)
4. Cn1c([C@H](C#N)c2ncccc2[N+](=O)[O-])nc2ccccc21

1: 16.5; 2: 30; 3: 28.6; 4: 67.6

---

Tested on: LOX IMVI melanoma
Experiment: NCI tumour cell line growth inhibition, 48 h; in the data active = GI50 below about 0.43 µM; inactive = the rest
// allowed return values: class 1 = active, class 0 = inactive

CCc1nc2cc(F)c(/C=C/C(=O)NO)cc2c(=O)n1CCc1ccccc1	class 1
C=C1C(=O)O[C@H]2[C@H]1CC/C(COC(=O)NCCCCNC(=O)OC/C1=C/CC[C@@]3(C)O[C@H]3[C@H]3OC(=O)C(=C)[C@@H]3CC1)=C\CC[C@@]1(C)O[C@@H]21	class 0
Cc1cc2ncnn2cc1Nc1ncc2c(n1)n(C1CCOCC1)c(=O)n2C	class 0

What is the recorded call for this molecule in the test? COc1ccccc1CNCCCN1C(=O)c2ccc3c4c(ccc(c24)C1=O)C(=O)N(CCCNCCNCCCN)C3=O
class 0

Would you mind telling me which call this test gave COc1cc2ncnc(-n3ncc4cc(NC(=O)Nc5ccccc5)ccc43)c2cc1OC ?
class 0

Dear colleague, could you share the recorded outcome for COc1ccc(-c2[nH]c3ccc(OC)cc3c2/C=C(\C#N)S(=O)(=O)c2ccccc2)cc1 when you have a moment?
class 0

Please share the test call associated with CC/C=C\C[C@H](O)C/C=C1/C(=O)C=C[C@@H]1C/C=C\CCCC(=O)OC .
class 1

I would be grateful if you could indicate the recorded call for CC(C)c1ccc(-c2cc(-c3cn[nH]c3-c3ccccn3)ccn2)cc1 .
class 0

---

Test system: UACC-62 melanoma
Assay: NCI tumour cell line growth inhibition, 48 h
Exercise: for every item that follows, state its recorded TGI.
Give bare numbers, in µM.

Batch: TGI for all items listed.
1. COc1ccccc1CNCCCN1C(=O)c2ccc3c4c(ccc(c24)C1=O)C(=O)N(CCCNCCNCCCN)C3=O
2. CSc1nnc(SC)nn1
3. COC1=C(OC)C(=O)C(Cc2c(C)nc3sccn23)=C(C)C1=O
4. C[C@@H](c1ccccc1)n1c(N)c(C#N)c2ccc([N+](=O)[O-])cc2c1=O
5. Cn1c(O)c(C(=O)NC2CCCCC2)c(=O)n(C)c1=S

1: 3.82; 2: 34; 3: 23.5; 4: 30.4; 5: 14.4

State recorded TGI for all listed compounds.
1. NNC(=O)c1c(SCc2ccccc2)nc2c3ccccc3ccn12
2. COC(=O)[C@@]12C(=O)C=CC(=O)C1C1C(=CC2C)OC2OC3(CCCCC3)OC21 (stereo partly drawn)

[29.6, 29]

---

System: A549 NSCLC
Assay: NCI tumour cell line growth inhibition, 48 h
measured-property: GI50

Example entries begin here.
CCCC(CCC)NCC(O)c1cc(-c2ccc(C(F)(F)F)cc2)nc(C(F)(F)F)c1 (stereo not drawn)	1.79 µM
Cc1ccc(N=C/C=C(\Nc2ccc(C)cc2)c2ccc(Cl)cc2)cc1	10.5 µM

COc1ccc(C(=O)c2cc(OC)c(OC)c(OC)c2)cc1/C=C/C(=O)c1ccc(F)cc1 yielded GI50 of 16.5 µM

---

System: K-562 leukemia
Assay: NCI tumour cell line growth inhibition, 48 h
For each record, write down the corresponding TGI.

Previously resolved entries follow.
Cc1cc(C)c(NC(=O)c2sc3nc4c(cc3c2N)C(=O)CCC4)c(C)c1	> 100 µM
Cc1cc(NC(=S)SCc2ccc(F)cc2)c([N+](=O)[O-])cc1C	> 100 µM
NS(=O)(=O)c1ccc(-c2ccc3c(NC(=O)C4CC4)n[nH]c3c2)cc1	> 25 µM
[N-]=[N+]=C1C(=O)NN=C1c1ccccc1	> 100 µM
CC(C)c1ccc(-c2cc(-c3cn[nH]c3-c3ccccn3)ccn2)cc1	> 25 µM

Below are 2 compounds. Give each one its TGI.
1. COC(=O)Nc1nc2ccc(S(=O)(=O)SC)cc2[nH]1
2. CN(C)CCC1(C2=CCCC2)CC/C(=C\c2ccc(Cl)cc2)C1=O (stereo unspecified)

1: > 100 µM; 2: > 23.2 µM

---

System: SN12C renal
Assay: NCI tumour cell line growth inhibition, 48 h
measured-property: TGI

Recorded TGI, per entry:
O=Cc1ccccc1COC(=O)c1cc(C(=O)OCc2ccccc2C=O)c(C(=O)OCc2ccccc2C=O)cc1C(=O)OCc1ccccc1C=O	> 100 µM
COC(=O)C12CC3CC(CC(C(=O)O)(C3)C1)C2	> 100 µM

Below are 5 molecules. Give each one its TGI.
1. CCOC(=O)N[C@@H]1C(CC(=O)OC)O[C@H]2OC(C)(C)O[C@H]21 (some centres undefined)
2. O=C(Nc1nnc(-c2ccc(Cl)cc2)o1)C(SC(=S)N1CCOCC1)c1ccccc1 (centres undefined)
3. O=C(NCP(=O)(c1ccccc1)c1ccccc1)OCc1ccccc1
4. O=C(c1ccco1)N(C(=S)OCCOc1ccccc1)c1ccccc1
5. O=C1c2ccccc2C(=O)N1CCCCNOCCCN1C(=O)c2ccccc2C1=O

["> 100 µM", "42.7 µM", "> 100 µM", "39.1 µM", "> 100 µM"]

Below are some molecules; for each one, tell me its TGI.
1. COCC[C@H]1CCC/C=C/[C@@H]2C[C@H](O)C[C@H]2[C@H](O)/C=C/C(=O)O1
2. Cc1cc(C(=O)Nc2ccc3cc(CN4CCOCC4)ccc3n2)c(C)n1-c1ccccc1
3. Cc1cc2nc(C=C(C(F)(F)F)C(F)(F)F)oc2cc1C
4. Cn1c(O)c(C(=O)NC2CCCCC2)c(=O)n(C)c1=S
5. Nc1nc(-[n+]2ccc(-c3ccncc3)cc2)nc(Cl)c1Cl
6. Cc1cc(NC(=S)SCc2ccc(F)cc2)c([N+](=O)[O-])cc1C
7. COC(=O)C(CC(=O)Nc1ccc(C)cc1)C(=O)C(=O)Nc1c(C(C)C)cccc1C(C)C (centres undefined)
8. CNC(=S)/N=C(\N)N(C)C

1. > 100 µM
2. > 92.3 µM
3. 5.1 µM
4. 59.9 µM
5. 42.5 µM
6. 48.4 µM
7. > 100 µM
8. > 100 µM

Can you give me TGI for all of these, one by one?
1. CC/C=C\C[C@H](O)C/C=C1/C(=O)C=C[C@@H]1C/C=C\CCCC(=O)OC
2. COc1ccc2c3c([nH]c2c1[N+](=O)[O-])C(C)N(C)CC3 (centres undefined)
3. COCc1nc2c(OC)c(-c3nc4nc(N5CCN(C)CC5)ccc4[nH]3)cc(OC)c2n1C

1: 10.2 µM; 2: > 100 µM; 3: > 100 µM

Hi there! I need TGI for each item below, if you can.
1. CCOC1=NC(O)c2cccn2-c2sccc21 (centres undefined)
2. CC(=O)O[C@H]1C(=O)[C@@]2(C)[C@H]([C@H](OC(=O)c3ccoc3)[C@]3(O)C[C@H](OC(=O)[C@H](O)[C@@H](NC(=O)c4ccccc4)c4ccccc4)C(C)=C1C3(C)C)[C@]1(OC(C)=O)CO[C@@H]1C[C@@H]2O
3. CCOc1ncn(-c2ccc(NC(=S)NC3OC(CO)C(O)C(O)C3O)cc2)n1 (centres undefined)
4. CC1=CC(C)(C)N=C2SC(c3ccc(N)cc3)=NN12
5. CC(=O)Nc1ccc(/C=C/c2ccc(NC(=O)Nc3ccc(/C=C/c4ccc(NC(C)=O)cc4S(=O)(=O)O)c(S(=O)(=O)O)c3)cc2S(=O)(=O)O)c(S(=O)(=O)O)c1
6. Cc1ccc([N+](=O)[O-])c2c(NCCC[N+](C)(C)[O-])c3ccccc3nc12
7. O=C(Nc1ccccc1-c1nc2ccccc2[nH]c1=O)c1ccccc1

["> 100 µM", "> 12.5 µM", "> 100 µM", "> 100 µM", "> 100 µM", "8.74 µM", "69.1 µM"]

Hi there! I need TGI for each item below, if you can.
1. Clc1cc(Cl)c2ns[s+]c2c1Cl
2. CC1S/C(=N\N=C2/C(=O)Nc3ccc(Br)cc32)N(C2CCCCC2)C1=O (centres undefined)
3. CC(CC[C@@]1(C)C(=O)CCC2O[C@]21C)[C@H]1C[C@@H](c2ccoc2)OC1=O (some centres undefined)
4. COc1cc(OC)c(C(=O)/C=C/c2cccc(C(F)(F)F)c2)c(OC)c1
5. CCCCC(CC)COC(=O)C[N+](C)(C)CCOC(c1ccccc1)c1ccccc1 (centres undefined)
6. CCCCCCCCCCCC(=O)OCC(C[As](=O)(O)O)OC(=O)CCCCCCCCCCC (centres undefined)
7. COc1ccc(C2=C(Cl)c3cc(OC)c(OC)cc3C2Cl)cc1 (centres undefined)
8. O=C(N/N=C/c1cc(Br)ccc1O)N/N=C/c1cc(Br)ccc1O

> 100 µM
12.3 µM
79.9 µM
5.68 µM
6 µM
8.27 µM
30.5 µM
> 100 µM

Hey, quick one: what's TGI for each of these?
1. Cc1nnc(NS(=O)(=O)c2ccc(N=Nc3cc(N=Nc4ccc(S(=O)(=O)Nc5nnc(C)s5)cc4)c4c(NC(=O)C(Cl)Cl)cccc4c3OC(=O)C(Cl)Cl)cc2)s1 (tested in a mixture with another compound)
2. CC1CCCCNC1=S (centres undefined)

1: > 100 µM; 2: > 10 µM

Please state TGI for every molecule in the list that follows.
1. O=c1cc(-c2ccc(Oc3ccccc3)cc2)[nH]c2cc3c(cc12)OCO3
2. O=C(O)CNS(=O)(=O)c1ccc(NC(=O)c2ccc([N+](=O)[O-])cc2)cc1
3. CCOP(=O)(OCC)C(c1ccc(F)cc1)N(C(=O)NC(F)(F)F)c1cccc(C(F)(F)F)c1 (centres undefined)
4. CCc1nc(N)nc(N)c1-c1ccc(NC)c([N+](=O)[O-])c1

1. > 100 µM
2. > 100 µM
3. > 100 µM
4. > 100 µM
